system_tested: SHV-5 β-lactamase (Class A ESBL) (Klebsiella pneumoniae, UniProt P0A3M1)
Sequence (P0A3M1 22-286): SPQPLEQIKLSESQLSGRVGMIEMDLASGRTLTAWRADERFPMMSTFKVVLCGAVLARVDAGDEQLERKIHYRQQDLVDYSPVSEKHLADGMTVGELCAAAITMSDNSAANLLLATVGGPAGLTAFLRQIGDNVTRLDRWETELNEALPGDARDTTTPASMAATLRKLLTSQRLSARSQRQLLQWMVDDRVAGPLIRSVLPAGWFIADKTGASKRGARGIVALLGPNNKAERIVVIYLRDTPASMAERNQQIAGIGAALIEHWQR
protocol_description: β-Lactamase inhibition, SHV-5
Method: For SHV-5, Kpc-2, p99AmpC and OXA-1 β-lactamases, E. coli BL21(DE3) bacterial cells carrying expression plasmids (expressed as native untagged proteins) for the individual β-lactamases were grown in 1 L of Superbroth (Teknova Inc. Hollister, Calif.) supplemented with 100 μg/ml kanamycin selection and 1×5052 (0.5% glycerol, 0.05% glucose and 0.2% α-lactose) at 35° C. for 18-20 hours. […]
pIC50: −log10 of the molar value.
observation_type: pIC50

I'd like to know its pIC50. The compound in question is O=C(CN1CCNCC1)N[C@H]1Cc2cccc(C(=O)O)c2OB1O > 7.00

Next compound up: O=C(CN[C@@H]1CCNC1)N[C@H]1Cc2cccc(C(=O)O)c2OB1O > 7.00

What do you have for NC1CCN(CC(=O)N[C@H]2Cc3cccc(C(=O)O)c3OB2O)CC1O (stereo partly drawn) ? 6.00 to 7.00

NCCN1CCC(CC(=O)N[C@H]2Cc3cccc(C(=O)O)c3OB2O)CC1 ? > 7.00

Also check NCC1CN(CC(=O)N[C@H]2Cc3cccc(C(=O)O)c3OB2O)CCC1N (stereo partly drawn) 5.00 to 6.00

And what about the compound N[C@@H]1CCCN(CC(=O)N[C@H]2Cc3cccc(C(=O)O)c3OB2O)C1 ? > 7.00

Also NCCCN1CCC(CC(=O)N[C@H]2Cc3cccc(C(=O)O)c3OB2O)CC1 , if possible. > 7.00

Then what about the compound N#CCN1CCC(CC(=O)N[C@H]2Cc3cccc(C(=O)O)c3OB2O)CC1 ? 6.00 to 7.00

// query: N=C(N)N1CCC(CC(=O)N[C@H]2Cc3cccc(C(=O)O)c3OB2O)CC1 > 7.00

Follow-up item: O=C(O)c1cccc2c1OB(O)[C@@H](NC(=O)C1CNCCN1)C2 (stereo partly drawn) > 7.00

Now try NCCNC1CCN(CC(=O)N[C@H]2Cc3cccc(C(=O)O)c3OB2O)CC1 . > 7.00

Follow-up item: O=C(CCN1CCNCC1)N[C@H]1Cc2cccc(C(=O)O)c2OB1O > 7.00
